Assay: Human HepG2 cell viability assay in 384 well format
Format: toxicity, cell-based
Set-up: dose 125 nL, time 70.5 hour; concentration not given beside the values
Details: HepG2 cells, read-out: Inhibition
The following molecules are listed with their measured cytotoxicity at 70.5 h values.
Report the figure in % without appending any unit label.

In the examples that follow, each entry is paired with its recorded cytotoxicity at 70.5 h.
| molecule | observedMeasurement |
| --- | --- |
| CCc1ccc(S(=O)(=O)NCC2CCN(c3cnccn3)CC2)s1 | -10.3 |
| CN(Cc1cc(Cl)cc2cccnc12)CC1CCN(CCO)CC1 | -2.37 |
| Cc1ccccc1CN(C)C(=O)CN1CCOC(Cn2cccn2)C1 (configuration not stated) | 3.04 |
| CC(C)(C)c1cn(C2CCN(C(=O)c3cnccn3)CC2)nn1 | -13.1 |
| O=C(O)Cn1ccc(=O)c2cc(Cl)ccc21 | -16.7 |
| O=c1c(-c2ccnc(NC3CCOCC3)n2)cnc2sc(Cl)cn12 | 1.36 |
| Cn1cnc2cc(NC(=O)c3n[nH]c4c3CCC4)ccc21 | -3.46 |
| Cn1ccnc1CN1C[C@@H]2[C@@H](C1)OCC(=O)N2CC1CCCC1 | -21.4 |

q: So what does the record say about cytotoxicity at 70.5 h for `c1ccc2ncc(CC3CCNCC3)cc2c1` ?
a: 13.4

q: So what does the record say about cytotoxicity at 70.5 h for Cc1ccc(C(C)N(C)C(=O)c2ccc(=O)n(C)c2)s1 (configuration not stated) ?
a: -0.24

q: So what does the record say about cytotoxicity at 70.5 h for `CCOc1ncccc1CNS(=O)(=O)c1ccc2c(c1)CCC2` ?
a: 4.98

q: So what does the record say about cytotoxicity at 70.5 h for `O=C(NC1(c2nc(C3CC3)no2)CCCCC1)c1cccnc1O` ?
a: 3.05

###

Test: Human HepG2 cell viability assay in 384 well format
Format: toxicity, cell-based
Set-up: dose 125 nL, time 70.5 hour; concentration not given beside the values
Conditions: HepG2 cells, read-out: Inhibition
The following compounds are listed with their measured cytotoxicity at 70.5 h values.
Report the figure in % without appending any unit label.

| compound | cytotoxicity at 70.5 h / % |
| --- | --- |
| CN(C)CC1(O)CCCN(C(=O)Cc2ccc(Cl)c(Cl)c2)C1 (stereo not drawn) | -2.73 |

q: So what does the record say about cytotoxicity at 70.5 h for Cn1cc(N2CCC3(CCN(C(=O)[C@H]4CCCO4)C3)C2=O)cn1 (stereo partly drawn) ?
a: -7.22

q: So what does the record say about cytotoxicity at 70.5 h for O=C(c1ccco1)N1CCCC(c2cc(C(F)(F)F)[nH]n2)C1 (stereo not drawn) ?
a: -7.38

q: So what does the record say about cytotoxicity at 70.5 h for `O=C([C@@H]1COC[C@H]2CN(C3CCOCC3)C[C@H]21)N1CCOCC1` ?
a: -1.42

q: So what does the record say about cytotoxicity at 70.5 h for `CS(=O)(=O)NC[C@@H]1OC[C@H]2CN(C(=O)c3ccccn3)CC[C@H]21` ?
a: -3.81

q: So what does the record say about cytotoxicity at 70.5 h for O=C1COc2cc(C(=O)N3CCCC(n4ccnc4)C3)ccc2N1 (stereo not drawn) ?
a: -1.66

q: So what does the record say about cytotoxicity at 70.5 h for `Cc1ccc(OCC(=O)Nc2cc(C(=O)O)cc(S(C)(=O)=O)c2)cc1C` ?
a: 0.676

q: So what does the record say about cytotoxicity at 70.5 h for `CC(=O)Nc1cc(F)c(S(=O)(=O)N(C)CC2CCC2)c(F)c1` ?
a: -0.0857
